The origin of these recorded values is ChEMBL document CHEMBL1201862.

system: OVCAR-4; test: NCI tumour cell line growth inhibition, 48 h
Active and inactive are the calls of the source. Rule as the data show it: active = GI50 up to about 1.1 µM and inactive = higher.
Documented GI50 across a set of compounds

>  <compound>
COc1ccc2c3c1O[C@H]1C(O)CCC4(O)[C@@H](C2)NCC[C@]314 (some centres undefined)

>  <GI50>
> 100 µM (inactive)

$$$$
>  <compound>
CC[C@H]1C=CCC[C@@]2(C[C@@H]3CC[C@@H]4[C@H](C(=O)OCCCCCCCCCCCCCCCC(=O)O)[C@]5(CCC[C@@H](C)O5)NC(=[N+]34)N2)O1

>  <GI50>
0.157 µM (active)

$$$$
>  <compound>
Cc1c(C(=O)O)oc2ccc([N+](=O)[O-])cc12

>  <GI50>
> 100 µM (inactive)

$$$$
>  <compound>
CC1(Cc2cc3c(cc2C2(c4ccc([N+](=O)[O-])cc4)OCCO2)OCO3)OCCO1

>  <GI50>
50.2 µM (inactive)

$$$$

* * *

test system: SN12C; test: NCI tumour cell line growth inhibition, 48 h
Active and inactive are the calls of the source. Cut-off read from the data, not from the text of the source: active = GI50 up to about 1.1 µM and inactive = higher.

>  <compound>
COc1ccc(CN2C(=O)C(Cc3cc(OC)c(OC)c(C)c3OC)NC(=O)/C2=C/c2cc(OC)c(OC)c(C)c2OC)cc1 (stereo not given)

>  <GI50>
27.5 µM (inactive)

$$$$
>  <compound>
CCOc1ccccc1NC(=O)CC1SC(Nc2ccc([N+](=O)[O-])cc2)=NC1=O (stereo not given)

>  <GI50>
20.4 µM (inactive)

$$$$
>  <compound>
C/C=C1/C(=Cc2[nH]c(C=c3[nH]/c(=C/C4=NC(=O)C(CC)=C4C)c(C)c3CCC(=O)O)c(CCC(=O)O)c2C)NC(=O)C1C (stereo not given)

>  <GI50>
3.3 µM (inactive)

$$$$
>  <compound>
CC1=CC=CC(C)(C)CC1(O[Si](C)(C)C)C(F)(F)F (stereo not given)

>  <GI50>
> 100 µM (inactive)

$$$$
>  <compound>
CN(C)CC1(Cc2ccccc2)CCC(Cc2ccccc2)C1=O (stereo not given)

>  <GI50>
9.77 µM (inactive)

$$$$

* * *

The following compounds are listed with their measured GI50 values.
test system: K562; test: NCI tumour cell line growth inhibition, 48 h
Calls of active or inactive are those of the source. Rule as the data show it: active = GI50 up to about 1.1 µM and inactive = higher.

>  <compound>
COc1ccc2cccc(C(=O)c3ccc(C)c4c3CCC4)c2c1

>  <GI50>
30.8 µM (inactive)

$$$$
>  <compound>
NNC(=O)c1nnn(N)c1S

>  <GI50>
36.8 µM (inactive)

$$$$
>  <compound>
CC(NP(=O)(c1ccccc1)c1ccccc1)c1ccccc1 (stereo unspecified)

>  <GI50>
> 100 µM (inactive)

$$$$
>  <compound>
Cc1ccc(NC(=O)/C(CC(=O)c2c[n+]([O-])c3ccccc3[n+]2[O-])=N\NC(=O)C[n+]2ccccc2)cc1

>  <GI50>
48.6 µM (inactive)

$$$$
>  <compound>
NNC(=O)CSc1nnc(CCCCCCCCc2nnc(SCC(=O)NN)o2)o1

>  <GI50>
> 100 µM (inactive)

$$$$
>  <compound>
Nc1ccc2nc3ccc(N)cc3[n+](-c3ccccc3)c2c1

>  <GI50>
69.3 µM (inactive)

$$$$

* * *

test system: NCI-H226; assay: NCI tumour cell line growth inhibition, 48 h
The source made the active and inactive calls. Rule as the data show it: active = GI50 up to about 1.1 µM and inactive = higher.
Labels: active, inactive

>  <molecule>
CC(=O)N1CCN(c2ccc(OCC3COC(Cn4ccnc4)(c4ccc(Cl)cc4Cl)O3)cc2)CC1 (stereo not given)

>  <answer_label>
inactive

$$$$
>  <molecule>
CC(C)(C)N(Cc1ccc2c(c1)OCO2)C(=O)/C=C\[S+]([O-])c1ccccc1 (stereo not given)

>  <answer_label>
inactive

$$$$
>  <molecule>
c1c(N2CCOCC2)s[s+]c1N1CCOCC1

>  <answer_label>
inactive

$$$$
>  <molecule>
CCN(CC)CCCNc1nncc2c(C)c3[nH]c4ccccc4c3cc12

>  <answer_label>
active

$$$$
>  <molecule>
COc1cc2c[n+](C)c3c(c2cc1OC)Cc1cc2c(cc1-3)OCO2

>  <answer_label>
inactive

$$$$
